Source: the NIST ThermoML archive (doi:10.1021/acs.jced.5b00971)

# assay-conditions: 352.1 K; 101.33 kPa; Liquid; Capillary tube (Ostwald / Ubbelohde) method
recorded-metric: viscosity (mPa·s)

> print(dat)
   record.smiles  test.result
1    CCCCCC(=O)O         1.14

(a) CCCCCCCCCCCCCC(=O)O
(b) CCCCCCCCCC(=O)O
Request: Consider a and b . Which of these has its viscosity at a higher number? Your answer should be the label attached to the chosen record.
Response: a

---

# assay-conditions: 352.1 K; 101.33 kPa; Liquid; Pycnometric method
recorded-metric: mass density (kg/m3)

> print(dat)
         record.smiles  recorded.metric  units.label  test.result
1    CCCCCCCCCCCC(=O)O     mass density        kg/m3        849.9
2      CCCCCCCCCC(=O)O     mass density        kg/m3        855.3
3  CCCCCCCCCCCCCC(=O)O     mass density        kg/m3        846.9
4          CCCCCC(=O)O     mass density        kg/m3        875.8

---

# assay-conditions: 332.1 K; 101.33 kPa; Liquid; Capillary tube (Ostwald / Ubbelohde) method
recorded-metric: viscosity (mPa·s)

Past entries and their recorded results:
> print(dat)
                              compound  recorded.metric  test.result
1      CCCCCCCCCC(=O)O [decanoic acid]        viscosity          3.8
2  CCCCCCCCCCCC(=O)O [dodecanoic acid]        viscosity         5.62

(a) CCCCCC(=O)O [hexanoic acid]
(b) CCCCCCCCCCCCCC(=O)O [tetradecanoic acid]
Request: Which has the higher viscosity, a or b ? Label of pick, please.
Response: b
(b: 7.77 mPa·s, a: 1.52 mPa·s)

---

# assay-conditions: 332.1 K; 101.33 kPa; Liquid; Pycnometric method
recorded-metric: mass density (kg/m3)

> print(dat)
                                   compound  units.label  test.result
1       CCCCCCCCCCCC(=O)O [dodecanoic acid]        kg/m3        864.6
2  CCCCCCCCCCCCCC(=O)O [tetradecanoic acid]        kg/m3        861.3
3               CCCCCC(=O)O [hexanoic acid]        kg/m3        893.1
4           CCCCCCCCCC(=O)O [decanoic acid]        kg/m3          871
